- tgt: neuropilin-1 (NRP1) on HEK293 cells overexpressing NRP1 (UniProt O14786)
- test-summary: flow cytometry, HEK293-NRP1 vs HEK293
property: 100 nM FACS (MFI Ratio)

NRP1-269 (antibody, IgG2, V domains shown) VH: EVQLLESGGGLVQPGGSLRLSCAASGFTFSNYVMTWVRQAPGKGLEWVSTISGSGGGTFYADSVKGRFTISRDNSKNTLYLQMNSLRAEDTAVYYCATDTVWASAWGSWGQGTLVTVSS VL: DIQMTQSPSSLSASVGDRVTITCRASQTIRKYLNWYQQKPGKAPKLLIYAASSLQSGVPSRFSGSGSGTDFTLTISSMQPEDFATYYCQQSYSTPITFGGGTKVEIK : 1.9
NRP1-233 (antibody, IgG2, V domains shown) VH: EVQLLESGGGLVQPGGSLRLSCAASGFSFSTYAMTWVRQAPEKGLEWVSSIGGSGRSTYYADSVKGRFTISRDNSKNTLYLQMNSLRAEDTAVYYCARLKRGGTNLVRKATRYQFYGMDAWGQGTLVTVSS VL: DIQMTQSPSSLSASVGDRVTITCRASQSISSYLAWYQQKPGKAPKLLIYAGSGLQSGVPSRFSGSGSGTDFTLTISSLQPEDFATYYCQQSFTSPLTFGGGTKVEIK : 1.7

These data points were gathered from patent US20230265198A1.
